- Test system: SF-539
- method-description: NCI tumour cell line growth inhibition, 48 h
Calls of active or inactive are those of the source. No stated cut-off is given here; in the data, active = GI50 up to about 1.1 µM and inactive = higher.
Reported GI50 values follow for various compounds

[
  {
    "compound": "CO[C@@H]1C[C@H]2[C@@H]3CC[C@H]([C@H](C)COC(C)=O)[C@@]3(C)CC[C@@H]2[C@@]2(C)CC[C@H]3C[C@]312",
    "GI50": "> 100 µM (inactive)"
  },
  {
    "compound": "COC1(OC)c2ccccc2C2(O)c3ccccc3C(=O)C12 (centres undefined)",
    "GI50": "61 µM (inactive)"
  },
  {
    "compound": "N#CC(/C(CCCC(=O)Nc1cccc([N+](=O)[O-])c1)=N\\NC(=O)c1c(O)ccc2ccccc12)c1nc2ccccc2s1 (centres undefined)",
    "GI50": "15.3 µM (inactive)"
  },
  {
    "compound": "Cc1nc(-[n+]2nc(-c3ccncc3)nn2-c2ccccc2)sc1C",
    "GI50": "8.53 µM (inactive)"
  }
]
